assay.text: Selectivity index, ratio of CC50 for Influenza A virus (A/Brisbane/10/2007(H3N2)) infected MDCK cells to EC50 for antiviral activity against Influenza A virus (A/Brisbane/10/2007(H3N2))
Assay type: toxicity, cell-based
condition.label: dog; read-out: Ratio CC50/EC50
outcome.measure: selectivity ratio
Reply with the value as a number alone.

The molecule listed as CC(C)C1=C[C@@]23CC[C@@H]4[C@](C)(CCC[C@@]4(C)C(=O)O)[C@H]2C[C@@H]1[C@H]1C(=O)CCC(=O)[C@H]13 has a reported selectivity ratio of 1.1

The molecule listed as COC(=O)[C@]1(C)CCC[C@]2(C)[C@H]3C[C@H]4C(C(C)C)=C[C@]3(CC[C@H]21)[C@@H]1C(=O)CC[C@H](OCCC#N)[C@@H]14 has a reported selectivity ratio of 2

The molecule listed as COC(=O)[C@]1(C)CCC[C@]2(C)[C@H]3C[C@H]4C(C(C)C)=C[C@]3(CC[C@H]21)[C@@H]1C(=O)C=CC(=O)[C@@H]14 has a reported selectivity ratio of 1.2

The molecule listed as COC(=O)[C@H]1[C@@H](C(=O)OC)C2(C(=O)OC)CC[C@@H]3[C@](C)(CCC[C@@]3(C)C(=O)OC)[C@H]2C[C@H]1C(=O)C(C)C (some centres undefined) has a reported selectivity ratio of 1
